System: Enterococcus faecium NCTC 7 171
Test: Peptidase detection on Columbia medium (Example 2)
Assay type: cell-based
Design: key: NG: No growth; 0.5: weak growth; 1: moderate growth; 2: good growth
Settings: 40 mg in 400 ml Columbia; 24 h 37° C.
Assay Endpoint: Growth

1. C[n+]1ccc(C=Cc2ccc(NC(=O)CC[C@H](N)C(=O)O)cc2)c2ccccc21.Cl.[Cl-] 1
2. C[C@H](N)C(=O)N[C@@H](C)C(=O)N[C@@H](C)C(=O)Nc1ccc(C=Cc2cc[n+](C)c3ccccc23)cc1.Cl.[Cl-] 2
3. C[n+]1ccc(C=Cc2ccc(NC(=O)[C@@H](N)Cc3ccc(O)cc3)cc2)c2ccccc21.Cl.[Cl-] 1
